Would you mind telling me the reported composite z-score of each entry?
- Test system: Streptavidin (Streptomyces avidinii) (UniProt P22629)
- Sequence (P22629 whole entry, looked up): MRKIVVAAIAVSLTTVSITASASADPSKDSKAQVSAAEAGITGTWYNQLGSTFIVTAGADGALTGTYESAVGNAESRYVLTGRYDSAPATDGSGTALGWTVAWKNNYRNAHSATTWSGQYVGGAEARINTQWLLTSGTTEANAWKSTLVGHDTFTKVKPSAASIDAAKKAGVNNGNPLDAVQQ
- Protocol text: streptavidin binders on small-molecule microarray, primary screen, artefact control for SMM compound annotation, biophysical, 635/667 nm fluorescence (AID 1147);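 also: signal reflects streptavidin binding to arrayed compounds as a control protein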
- Conditions: streptavidin binding, higher = more signal

Worked examples, 3 compounds total:
# Compound, composite z-score
records = [
    ("O=C1OCCC=C[C@H]2OC34C=CCN(Cc5ccccc5)C(=O)[C@H]3N(CCCO)C(=O)[C@@H]4C12 (some centres undefined)", -0.399),
    ("CO[C@H]1O[C@H](CO)[C@@H](OC(=O)Nc2ccc(Oc3ccccc3)cc2)[C@H](OC(=O)Nc2ccccc2)[C@H]1OC(=O)Nc1ccccc1", 0.693),
    ("O=C(CS)NCCCCCCNC(=O)[C@H]1C[C@H]2C(=O)NCC(=O)N2[C@H]1c1ccc(O)cc1", -0.406),
]

Proceed to the following item.
Please fill in: composite z-score reported for CCOC(=O)[C@H]1C/C=C/C[C@H](C(=O)OCC)C(=O)O[C@H]2[C@@H](OC)O[C@H](CO)[C@@H](OC(=O)Nc3ccc4c(c3)OCO4)[C@@H]2OC1=O = -0.0265
